The reported measurements were obtained from paper PMC7583830.

- experimental.protocol: Biodistribution in BALB/c mice
- Format: in vivo
- condition.label: female, BALB/c, mouse, intestine, iv, 30 MBq, total radioactivity; 30 min p.i.; read-out: uptake in intestine
Where a SMILES comes first, the peptide text is derived from it. [ ]: non-standard residue; d: D form. The star is where a group is joined. DOTA = O=C(O)CN1CCN(CC(=O)O)CCN(CC(=O)*)CCN(CC(=O)O)CC1; 1Nal = N[C@@H](Cc1cccc2ccccc12)C(=O)O; NMeNle = CCCC[C@H](NC)C(=O)O
measured.attribute: tissue uptake at 0.5 h (%ID/g)
A number alone suffices; assume %ID/g.

**Q:** So what's the measured tissue uptake at 0.5 h for this one? CCCC[C@@H](C(=O)N[C@@H](CC(=O)O)C(=O)N[C@@H](Cc1cccc2ccccc12)C(N)=O)N(C)C(=O)[C@H](Cc1c[nH]c2ccccc12)NC(=O)CNC(=O)[C@H](Cc1ccc(O)cc1)NC(=O)[C@@H]1CCCN1C(=O)[C@@H](CCC(=O)O)NC(=O)CN1CCN(CC(=O)O)CCN(CC(=O)O)CCN(CC(=O)O)CC1 [[^177Lu]Lu-1, metal not drawn] ({DOTA}-[dE]PYGW[NMeNle]D[1Nal]-NH2)
**A:** 1.61

---

- experimental.protocol: Biodistribution in BALB/c mice
- Assay type: in vivo
- condition.label: female, BALB/c, mouse, femur, iv, 30 MBq, total radioactivity; 10 min p.i.; read-out: uptake in femur
Where a SMILES comes first, the peptide text is derived from it. [ ]: non-standard residue; d: D form. The star is where a group is joined. DOTA = O=C(O)CN1CCN(CC(=O)O)CCN(CC(=O)*)CCN(CC(=O)O)CC1; 1Nal = N[C@@H](Cc1cccc2ccccc12)C(=O)O; NMeNle = CCCC[C@H](NC)C(=O)O
measured.attribute: tissue uptake at 10 min (%ID/g)
A number alone suffices; assume %ID/g.

**Q:** So what's the measured tissue uptake at 10 min for this one? CCCC[C@@H](C(=O)N[C@@H](CC(=O)O)C(=O)N[C@@H](Cc1cccc2ccccc12)C(N)=O)N(C)C(=O)[C@H](Cc1c[nH]c2ccccc12)NC(=O)CNC(=O)[C@H](Cc1ccc(O)cc1)NC(=O)[C@@H]1CCCN1C(=O)[C@@H](CCC(=O)O)NC(=O)CN1CCN(CC(=O)O)CCN(CC(=O)O)CCN(CC(=O)O)CC1 [[^177Lu]Lu-1, metal not drawn] ({DOTA}-[dE]PYGW[NMeNle]D[1Nal]-NH2)
**A:** 5.97

---

- experimental.protocol: Biodistribution in BALB/c mice
- Format: in vivo
- condition.label: female, BALB/c, mouse, stomach, iv, 30 MBq, total radioactivity; 1 h p.i.; read-out: uptake in stomach
Where a SMILES comes first, the peptide text is derived from it. [ ]: non-standard residue; d: D form. The star is where a group is joined. DOTA = O=C(O)CN1CCN(CC(=O)O)CCN(CC(=O)*)CCN(CC(=O)O)CC1; 1Nal = N[C@@H](Cc1cccc2ccccc12)C(=O)O; NMeNle = CCCC[C@H](NC)C(=O)O
measured.attribute: tissue uptake at 1 h (%ID/g)
A number alone suffices; assume %ID/g.

**Q:** So what's the measured tissue uptake at 1 h for this one? CCCC[C@@H](C(=O)N[C@@H](CC(=O)O)C(=O)N[C@@H](Cc1cccc2ccccc12)C(N)=O)N(C)C(=O)[C@H](Cc1c[nH]c2ccccc12)NC(=O)CNC(=O)[C@H](Cc1ccc(O)cc1)NC(=O)[C@@H]1CCCN1C(=O)[C@@H](CCC(=O)O)NC(=O)CN1CCN(CC(=O)O)CCN(CC(=O)O)CCN(CC(=O)O)CC1 [[^177Lu]Lu-1, metal not drawn] ({DOTA}-[dE]PYGW[NMeNle]D[1Nal]-NH2)
**A:** 1.39

---

- experimental.protocol: Distribution coefficient (logD) in octanol/PBS
- Type: physicochemical
- condition.label: octanol/PBS pH 7.4; read-out: logD
Where a SMILES comes first, the peptide text is derived from it. [ ]: non-standard residue; d: D form. The star is where a group is joined. DOTA = O=C(O)CN1CCN(CC(=O)O)CCN(CC(=O)*)CCN(CC(=O)O)CC1; 1Nal = N[C@@H](Cc1cccc2ccccc12)C(=O)O; NMeNle = CCCC[C@H](NC)C(=O)O
Overview of recorded logD for various compounds
Hey, just send me the number, nothing else.

Some entries whose results are on file:
CCCC[C@@H](C(=O)N[C@@H](CC(=O)O)C(=O)N[C@@H](Cc1cccc2ccccc12)C(N)=O)N(C)C(=O)[C@H](Cc1c[nH]c2ccccc12)NC(=O)CNC(=O)[C@H](Cc1ccc(O)cc1)NC(=O)[C@@H]1CCCN1C(=O)[C@@H](CCC(=O)O)NC(=O)CN1CCN(CC(=O)O)CCN(CC(=O)O)CCN(CC(=O)O)CC1 [[^177Lu]Lu-1, metal not drawn] ({DOTA}-[dE]PYGW[NMeNle]D[1Nal]-NH2) | -1.96
CCCC[C@@H](C(=O)N[C@@H](CC(=O)O)C(=O)O)N(C)C(=O)[C@H](Cc1c[nH]c2ccccc12)NC(=O)CNC(=O)[C@H](Cc1ccc(O)cc1)NC(=O)[C@@H]1CCCN1C(=O)[C@@H](CCC(=O)O)NC(=O)CN1CCN(CC(=O)O)CCN(CC(=O)O)CCN(CC(=O)O)CC1 [[^177Lu]Lu-M2, metal not drawn] ({DOTA}-[dE]PYGW[NMeNle]D-OH; C-terminus assumed) | -4.18

**Q:** So what's the measured logD for this one? CCCC[C@@H](C(=O)N[C@@H](CC(=O)O)C(=O)N[C@@H](Cc1cccc2ccccc12)C(=O)O)N(C)C(=O)[C@H](Cc1c[nH]c2ccccc12)NC(=O)CNC(=O)[C@H](Cc1ccc(O)cc1)NC(=O)[C@@H]1CCCN1C(=O)[C@@H](CCC(=O)O)NC(=O)CN1CCN(CC(=O)O)CCN(CC(=O)O)CCN(CC(=O)O)CC1 [[^177Lu]Lu-M1, metal not drawn] ({DOTA}-[dE]PYGW[NMeNle]D[1Nal]-OH)
**A:** -4.07

**Q:** So what's the measured logD for this one? CCCC[C@@H](C(=O)O)N(C)C(=O)[C@H](Cc1c[nH]c2ccccc12)NC(=O)CNC(=O)[C@H](Cc1ccc(O)cc1)NC(=O)[C@@H]1CCCN1C(=O)[C@@H](CCC(=O)O)NC(=O)CN1CCN(CC(=O)O)CCN(CC(=O)O)CCN(CC(=O)O)CC1 [[^177Lu]Lu-M3, metal not drawn] ({DOTA}-[dE]PYGW[NMeNle]-OH; C-terminus assumed)
**A:** -4.13

---

- experimental.protocol: Distribution coefficient (logD) in octanol/PBS
- Assay type: physicochemical
- condition.label: pH 7.4
- Method: The mixture was vigorously vortexed at room temperature over a period of 15 min using a small shaker (MS3 Basic, IKA, Staufen, Germany) with speed of 1500 rpm.
Where a SMILES comes first, the peptide text is derived from it. [ ]: non-standard residue; d: D form. The star is where a group is joined. DOTA = O=C(O)CN1CCN(CC(=O)O)CCN(CC(=O)*)CCN(CC(=O)O)CC1
measured.attribute: logD
Hey, just send me the number, nothing else.

**Q:** So what's the measured logD for this one? O=C(O)CC[C@@H](NC(=O)CN1CCN(CC(=O)O)CCN(CC(=O)O)CCN(CC(=O)O)CC1)C(=O)N1CCC[C@H]1C(=O)N[C@@H](Cc1ccc(O)cc1)C(=O)NCC(=O)N[C@@H](Cc1c[nH]c2ccccc12)C(=O)O [[^177Lu]Lu-M4, metal not drawn] ({DOTA}-[dE]PYGW-OH; C-terminus assumed)
**A:** -4.19

---

- experimental.protocol: Metabolic stability in vivo and radiometabolites (radio-HPLC of blood, urine, liver, kidney)
- Set-up: species or system BALB/c mice
- condition.label: kidney, 30 min p.i.
Where a SMILES comes first, the peptide text is derived from it. [ ]: non-standard residue; d: D form. The star is where a group is joined. DOTA = O=C(O)CN1CCN(CC(=O)O)CCN(CC(=O)*)CCN(CC(=O)O)CC1; 1Nal = N[C@@H](Cc1cccc2ccccc12)C(=O)O; NMeNle = CCCC[C@H](NC)C(=O)O
measured.attribute: percentage of intact radiopeptide / radiometabolite (%)
A number alone suffices; assume %.

Some entries whose results are on file:
CCCC[C@@H](C(=O)N[C@@H](CC(=O)O)C(=O)N[C@@H](Cc1cccc2ccccc12)C(=O)O)N(C)C(=O)[C@H](Cc1c[nH]c2ccccc12)NC(=O)CNC(=O)[C@H](Cc1ccc(O)cc1)NC(=O)[C@@H]1CCCN1C(=O)[C@@H](CCC(=O)O)NC(=O)CN1CCN(CC(=O)O)CCN(CC(=O)O)CCN(CC(=O)O)CC1 [[^177Lu]Lu-M1, metal not drawn] ({DOTA}-[dE]PYGW[NMeNle]D[1Nal]-OH) | 2.5
CCCC[C@@H](C(=O)N[C@@H](CC(=O)O)C(=O)N[C@@H](Cc1cccc2ccccc12)C(N)=O)N(C)C(=O)[C@H](Cc1c[nH]c2ccccc12)NC(=O)CNC(=O)[C@H](Cc1ccc(O)cc1)NC(=O)[C@@H]1CCCN1C(=O)[C@@H](CCC(=O)O)NC(=O)CN1CCN(CC(=O)O)CCN(CC(=O)O)CCN(CC(=O)O)CC1 [[^177Lu]Lu-1, metal not drawn] ({DOTA}-[dE]PYGW[NMeNle]D[1Nal]-NH2) | 18.0
CCCC[C@@H](C(=O)N[C@@H](CC(=O)O)C(=O)O)N(C)C(=O)[C@H](Cc1c[nH]c2ccccc12)NC(=O)CNC(=O)[C@H](Cc1ccc(O)cc1)NC(=O)[C@@H]1CCCN1C(=O)[C@@H](CCC(=O)O)NC(=O)CN1CCN(CC(=O)O)CCN(CC(=O)O)CCN(CC(=O)O)CC1 [[^177Lu]Lu-M2, metal not drawn] ({DOTA}-[dE]PYGW[NMeNle]D-OH; C-terminus assumed) | 20.7

Okay, next one:
**Q:** So what's the measured percentage of intact radiopeptide / radiometabolite for this one? CCCC[C@@H](C(=O)O)N(C)C(=O)[C@H](Cc1c[nH]c2ccccc12)NC(=O)CNC(=O)[C@H](Cc1ccc(O)cc1)NC(=O)[C@@H]1CCCN1C(=O)[C@@H](CCC(=O)O)NC(=O)CN1CCN(CC(=O)O)CCN(CC(=O)O)CCN(CC(=O)O)CC1 [[^177Lu]Lu-M3, metal not drawn] ({DOTA}-[dE]PYGW[NMeNle]-OH; C-terminus assumed)
**A:** 7.9
